- tested.target: CDK2/cyclin A2 (Homo sapiens, UniProt P24941)
- Construct: purchased Carna Biosciences, Inc. QS S Assist CDK2/Cyclin A2_FP Kit
- experiment.notes: Human CDK2/cyclin A2 inhibitory activity (QS S Assist CDK2/Cyclin A2_FP Kit, IMAP fluorescence polarization)
- Type: biochemical
- stated.conditions: Human CDK2/cyclin A2 inhibitory activity; read-out: CDK2 Activity symbol
pIC50: −log10 of the molar value.
Give pIC50 for every item shown.

Given the entry COCc1cc2cnc(Nc3ccc(N4CCNCC4)cn3)nc2c(NC(C)C)n1 , report its measured pIC50.
≤ 7.00

Need pIC50, item CC(C)Nc1nc([C@@H](C)O)cc2cnc(Nc3ccc(N4CC5(CCN5)C4)nn3)nc12
≤ 7.00

Item under review: C[C@@H](O)c1cc2cnc(Nc3ccc(CN4CCNCC4)cn3)nc2c(N[C@H]2CC[C@H](O)CC2)n1 . Reported pIC50?
≤ 7.00

Find the recorded pIC50 belonging to COCC(C)(C)Nc1nc([C@@H](C)O)cc2cnc(Nc3ccc(CN4CCCOCC4)cn3)nc12 and report it.
≤ 7.00

Which value of pIC50 has been reported for CC(C)Nc1nc(C(F)F)cc2cnc(Nc3ccc(NC(=O)CO)cn3)nc12 in the records?
7.00 to 8.00

Value lookup for pIC50; key = COCC(C)(C)Nc1nc([C@@H](C)O)cc2cnc(Nc3ccc(CN4CCN(CC(F)F)CC4)cn3)nc12
≤ 7.00

// pIC50 lookup, key: CC(C)Nc1nc(C(F)F)cc2cnc(Nc3ccc(C(N)=O)cn3)nc12
7.00 to 8.00

Name the recorded pIC50 for CO[C@H](C)c1cc2cnc(Nc3ccc(N4CC[C@H](N)[C@@H](F)C4)cn3)nc2c(NC(C)C)n1 .
≤ 7.00

Reported pIC50 for CO[C@H](C)c1cc2cnc(Nc3ccc(CN4CCNCC4)cn3)nc2c(NC2CCOCC2)n1 : what is it?
≤ 7.00

Param item = CC(C)Nc1nc(C(F)F)cc2cnc(Nc3ccc(CN4CCCC(CO)C4)cn3)nc12 (stereo not shown) ; retrieve measured pIC50.
7.00 to 8.00

Item under review: CC(C)Nc1nc(C(F)F)cc2cnc(Nc3ccc(N4C[C@@H](O)CC4=O)cn3)nc12 . Reported pIC50?
7.00 to 8.00

Which pIC50 value belongs to CC(C)Nc1nc(C(F)F)cc2cnc(Nc3ccc(CN4CCCCC4C(=O)O)cn3)nc12 (stereo not shown) ?
7.00 to 8.00

Param item = CC(C)Nc1nc(C(F)F)cc2cnc(Nc3ccc(N4CCC(O)C4)cn3)nc12 (stereo not shown) ; retrieve measured pIC50.
7.00 to 8.00

I have this molecule here, CC(C)Nc1nc(C(F)F)cc2cnc(Nc3ccc(CN4CCNC4=O)cn3)nc12 , and I need its recorded pIC50.
7.00 to 8.00

So what does the record say about pIC50 for CO[C@H](C)c1cc2cnc(Nc3ccc(N4CCNC[C@H]4C)nn3)nc2c(NC(C)C)n1 ?
≤ 7.00

So what's the measured pIC50 for this one? CC(C)Nc1nc(C(C)O)cc2cnc(Nc3ccc(N4CCOCC4)cn3)nc12 (stereo not shown)
≤ 7.00

----------
- tested.target: CDK4/cyclin D3 (Homo sapiens, UniProt P11802)
- Construct: purchased Carna Biosciences, Inc. QS S Assist CDK4/Cyclin D3_FP Kit
- Sequence (P11802 whole entry): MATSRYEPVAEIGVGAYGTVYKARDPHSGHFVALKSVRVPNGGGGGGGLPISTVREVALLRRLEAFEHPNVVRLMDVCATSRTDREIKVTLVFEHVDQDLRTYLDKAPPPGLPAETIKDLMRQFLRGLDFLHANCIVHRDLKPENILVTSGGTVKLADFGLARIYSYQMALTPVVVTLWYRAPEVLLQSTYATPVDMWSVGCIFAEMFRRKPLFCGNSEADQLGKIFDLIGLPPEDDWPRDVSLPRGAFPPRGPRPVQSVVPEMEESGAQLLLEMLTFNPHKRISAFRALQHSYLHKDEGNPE
- Sequence (P30281 whole entry partner): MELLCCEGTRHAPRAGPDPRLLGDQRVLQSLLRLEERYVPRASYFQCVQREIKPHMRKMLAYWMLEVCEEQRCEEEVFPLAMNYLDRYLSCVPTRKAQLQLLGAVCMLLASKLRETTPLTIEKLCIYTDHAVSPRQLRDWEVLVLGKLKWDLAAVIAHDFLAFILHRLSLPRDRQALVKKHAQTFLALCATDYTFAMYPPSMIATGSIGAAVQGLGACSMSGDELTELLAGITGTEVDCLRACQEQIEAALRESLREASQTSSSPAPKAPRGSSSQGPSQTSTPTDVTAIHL
- experiment.notes: Human CDK4/cyclin D3 inhibitory activity (QS S Assist CDK4/Cyclin D3_FP Kit, IMAP fluorescence polarization)
- Assay type: biochemical
- stated.conditions: Human CDK4/cyclin D3 inhibitory activity; read-out: CDK4 Activity symbol
pIC50: −log10 of the molar value.
Please provide measured pIC50 for the entries that follow.

What pIC50 value was documented for this molecule, CO[C@H](C)c1cc2cnc(Nc3ccc(CN4CCNCC4)cn3)nc2c(N[C@H]2CC[C@H](O)CC2)n1 ?
> 8.00

Request the reported pIC50 associated with COCC(C)(C)Nc1nc([C@@H](C)O)cc2cnc(Nc3ccc(N4CCNCC4)nn3)nc12
> 8.00

Need pIC50 of COCC(C)(C)Nc1nc([C@@H](C)O)cc2cnc(Nc3ccc(N4CCOCC4)cn3)nc12 , thanks.
> 8.00

Which pIC50 value belongs to CC(C)Nc1nc(C(C)O)cc2cnc(Nc3ccc(N4CCC(N)C4)cn3)nc12 (stereo not shown) ?
> 8.00

Form field: reported pIC50 of Cc1ccc(Nc2ncc3cc(C(F)F)nc(NC(C)C)c3n2)nc1
7.00 to 8.00

Look at this molecule and give its reported pIC50. O[C@H]1CC[C@@H](Nc2nc(C(F)F)cc3cnc(Nc4ccc(CN5CCNCC5)cn4)nc23)CC1
> 8.00

Record request: pIC50 value, item CO[C@H](C)c1cc2cnc(Nc3ccc(N4CC5(CNC5)C4)cn3)nc2c(NC(C)C)n1
> 8.00

So what does the record say about pIC50 for CNC1CCN(c2ccc(Nc3ncc4cc(C(C)O)nc(NC(C)C)c4n3)nn2)CC1F (stereo not shown) [Compound 610] ?
> 8.00

# input molecule: CO[C@H](C)c1cc2cnc(Nc3ccc(CN4CCC(C(C)(C)O)CC4)cn3)nc2c(NC(C)C)n1 ; wanted: its pIC50
> 8.00

Bench note: what pIC50 did COCC(C)(C)Nc1nc([C@@H](C)O)cc2cnc(Nc3ccc(CC(N)=O)cn3)nc12 show?
7.00 to 8.00

State the recorded pIC50 for this entry: CC(C)Nc1nc([C@@H](C)O)cc2cnc(Nc3ccc(CC(=O)N4CCNCC4)cn3)nc12
> 8.00

Form field: reported pIC50 of CO[C@H](C)c1cc2cnc(Nc3ccc(N4CCCC(O)C4)nn3)nc2c(NC(C)C)n1 (stereo partly shown)
> 8.00

Give its pIC50 value. Item: COCC(C)(C)Nc1nc([C@@H](C)O)cc2cnc(Nc3ccc(CN4CCOCC4=O)cn3)nc12
7.00 to 8.00

What value of pIC50 has been reported for the following molecule? CNCC(C)(C)c1ccc(Nc2ncc3cc([C@@H](C)O)nc(NC(C)C)c3n2)nc1
> 8.00

Quick one: pIC50 of CC(C)Nc1nc(C(F)F)cc2cnc(Nc3ccc(-c4ccncc4)cn3)nc12 ?
7.00 to 8.00

# get_value(readout='pIC50', item= CC(C)Nc1nc([C@@H](C)O)cc2cnc(Nc3ccc(N4CCCNCC4=O)cn3)nc12 )
> 8.00

I'd like to know its pIC50. The molecule in question is COCC(C)(C)Nc1nc([C@@H](C)O)cc2cnc(Nc3ccc(CN4CCCOCC4)cn3)nc12
> 8.00

GET /values?readout=pIC50&item= COC(C)c1cc2cnc(Nc3ccc(CN4CCNCC4)cn3)nc2c(NC[C@H]2CCCO2)n1 (stereo partly shown)
> 8.00

Any idea what its pIC50 is? The molecule is CC(C)Nc1nc([C@@H](C)O)cc2cnc(Nc3ccc(N4CCNCC4)cn3)nc12
> 8.00

# pIC50 lookup, item CC(C)Nc1nc([C@@H](C)O)cc2cnc(Nc3ccc(N4CCNCC(C)(C)C4=O)cn3)nc12
> 8.00

Bench note: what pIC50 did C[C@@H](O)c1cc2cnc(Nc3ccc(N4CCNCC4=O)cn3)nc2c(N[C@H]2CC[C@@H](C)CC2)n1 show?
> 8.00

Which measured pIC50 value corresponds to C[C@@H](O)c1cc2cnc(Nc3ccc(N4CCNCC4=O)cn3)nc2c(NC2CCOCC2)n1 ?
> 8.00

Record request: pIC50 value, item CC(=O)N(Cc1ccc(Nc2ncc3cc(C(F)F)nc(NC(C)C)c3n2)nc1)C[C@H]1CCCO1
> 8.00

Entry under review: COC(C)c1cc2cnc(Nc3ccc(O[C@@H]4CCNC[C@H]4F)cn3)nc2c(NC(C)C)n1 (relative stereo) . Reported pIC50?
> 8.00

Form field: reported pIC50 of COC(C)c1cc2cnc(Nc3ccc(CN4CCNCC4)cn3)nc2c(NCC2CCC(=O)N2)n1 (stereo not shown)
7.00 to 8.00

State the recorded pIC50 for this entry: CC(C)Nc1nc([C@@H](C)O)cc2cnc(Nc3ccc(N4CCC(N(C)C)CC4)nn3)nc12
> 8.00

I have this molecule here, CC(C)Nc1nc(C(F)F)cc2cnc(Nc3ccc(CN4CCS(=O)(=O)CC4)cn3)nc12 , and I need its recorded pIC50.
> 8.00

Return reported pIC50; argument: CC(C)Nc1nc([C@@H](C)O)cc2cnc(Nc3ccc(N4CC5(CC(O)C5)C4)nn3)nc12
> 8.00

What does the record list as pIC50 for CC(O)c1cc2cnc(Nc3ccc(N4CCNCC4)cn3)nc2c(NC2CCCOC2)n1 (stereo not shown) ?
> 8.00

Sample CC(O)c1cc2cnc(Nc3ccc(N4CCNCC4)cn3)nc2c(NCC(F)F)n1 (stereo not shown) — what was its pIC50?
≤ 7.00

Look at this molecule and give its reported pIC50. CC(C)Nc1nc([C@@H](C)O)cc2cnc(Nc3ccc(O[C@@H]4CCNC4)cn3)nc12
> 8.00
